# TARGET DESC: human CYP11B2 (Homo sapiens (Human), UniProt P19099)
# Sequence (P19099 25-503): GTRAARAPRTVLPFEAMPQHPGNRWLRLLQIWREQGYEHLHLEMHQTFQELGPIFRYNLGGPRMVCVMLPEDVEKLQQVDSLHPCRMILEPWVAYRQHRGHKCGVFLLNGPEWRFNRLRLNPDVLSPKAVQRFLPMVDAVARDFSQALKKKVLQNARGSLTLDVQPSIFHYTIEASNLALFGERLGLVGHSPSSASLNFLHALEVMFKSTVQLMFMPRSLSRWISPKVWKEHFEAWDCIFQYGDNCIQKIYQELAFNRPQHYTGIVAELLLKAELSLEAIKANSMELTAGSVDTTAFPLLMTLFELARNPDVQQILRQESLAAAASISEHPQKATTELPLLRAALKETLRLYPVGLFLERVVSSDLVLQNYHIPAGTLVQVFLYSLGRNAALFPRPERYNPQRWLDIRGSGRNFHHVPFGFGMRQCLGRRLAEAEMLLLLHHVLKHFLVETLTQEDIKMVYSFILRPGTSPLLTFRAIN
# MEASUREMENT DESCRIPTION: Inhibitory effect on hCYP11B2 (aldosterone production by mitochondrial fraction of V79 cells stably expressing human CYP11B2, HTRF)
# CONDITION SUMMARY: 0.5 μmol/L deoxycorticosterone, 150 μmol/L NADPH, 1.5-2 hours at room temperature
MEASURE: IC50 (µM)

Query block: Supply measured IC50 of CC(C)NC(=O)CN1CCN(c2nncc(-c3ccc4c(c3)CNN4C)n2)CC1 in your reply.
Result block: 0.026

P = Cc1ccccc1-c1cnnc(C2CCCN(c3ncccn3)C2)n1 (centres unmarked)
Q = Cc1ccccc1-c1cnnc(N2CC[C@@H](Oc3ccncc3)C2)n1
R = Cc1ccccc1-c1cnnc(N(Cc2ccccn2)S(C)(=O)=O)n1
Query block: Sort these compounds on IC50 so the largest reading comes first. Respond with the label ranking, as requested.
Result block: R, P, Q
(R: 0.023 µM, P: 0.011 µM, Q: 0.006 µM)

This collection of values is drawn from patent US10029993B2.
